Numbers sourced from PubChem BioAssay (NCI).

system: MDA-MB-231 breast; test: NCI-60 one-dose screen, 48 h; conditions: 10 µM unless noted
This is part of a sample that, as a whole, favours compounds with a hit. Of some 83,000 tested, about 20% had one in any assay. The source made the active and inactive calls. How the source made its calls: active means growth percent below 10; inactive means the rest.
Would you mind answering with one of these outcomes? 1.0 = active, 0.0 = inactive

**Query** How was CCCC(c1nnnn1C1CCCCC1)N1CCN(C(=O)c2ccco2)CC1 (stereo not given) classified in this test?
**Result** 0.0

**Query** How was `CC(=S)NC(=O)C(=O)/C=C1/NC(=O)C(=O)S1` classified in this test?
**Result** 0.0

**Query** How was `Cc1cccc2c(=O)c3c(sc12)c(N1CCNCC1)nc1ccccc13` classified in this test?
**Result** 0.0

**Query** How was N#Cc1c(N)nc2c(c1N)C(c1ccc(F)cc1)c1ccc(N)cc1O2 (stereo not given) classified in this test?
**Result** 0.0

**Query** How was `Cc1cccc2c(=O)c3c(sc12)c(NCCCNCCO)nc1ccccc13` classified in this test?
**Result** 1.0

**Query** How was `CC(=O)Nc1nc2c(s1)CCc1c-2cn(S(=O)(=O)c2ccccc2)c1-c1ccccc1` classified in this test?
**Result** 0.0

**Query** How was COc1ccc(-n2c(C(O)c3ccccc3)nn(CN3CCOCC3)c2=S)cc1 (stereo not given) classified in this test?
**Result** 0.0

**Query** How was Nc1ccn(C2O[C@H](CO)[C@@H](O)[C@H]2O)c(=O)n1 (stereo not given in full) classified in this test?
**Result** 0.0

**Query** How was COC(=O)[C@H](NC(=O)C1(C)CCC[C@]2(C)[C@H]3C[C@H]4C(C(C)C)=C[C@]3(CC[C@@H]12)[C@@H]1C(=O)CCC(=O)[C@@H]14)C(C)C (stereo not given in full) classified in this test?
**Result** 0.0

**Query** How was `O=NN(Cc1cccnc1)C(=O)NC1CCCCC1` classified in this test?
**Result** 0.0

====

system: UACC-62 melanoma; test: NCI-60 one-dose screen, 48 h (100 = growth as untreated, 0 = no growth, -100 = all killed); settings: 10 µM unless noted
The panel holds about 83,000 compounds, 20% with a hit somewhere; the sample as a whole holds those more often. Active and inactive are the calls of the source. The calls were made as follows: active = growth percent below 10; inactive = the rest.
REPORTED_METRIC: growth

The recorded growth for entry `O=C1/C(=C\c2ccc[nH]2)c2ccccc2N1c1ccccc1` equals 77% (inactive)

The recorded growth for entry COc1ccc(C2C3=C(COC3=O)N(CCO)c3cc4c(cc32)OCCO4)cc1 (configuration not stated) equals 72.4% (inactive)

The recorded growth for entry `O=[N+]([O-])c1cc2c(ccc3occc32)o1` equals 20.5% (inactive)

The recorded growth for entry `COc1ccccc1C(=O)/C=C/c1ccccc1` equals 85.2% (inactive)

The recorded growth for entry Nc1ccn(C2O[C@H](CO)[C@@H](O)[C@H]2O)c(=O)n1 (some centres not stated) equals 95.9% (inactive)

The recorded growth for entry `Nc1ccc(-c2ccc(-c3ccccc3N)c3[nH]c4ccccc4c23)cc1` equals 25.4% (inactive)

The recorded growth for entry NC(CCc1nc2ccccc2c(=O)[nH]1)C(=O)O (configuration not stated) equals 100% (inactive)

The recorded growth for entry `FC(F)(F)c1cccc(Nc2nc(-c3ccccc3)nc3ncccc23)c1` equals -50.6% (active)

The recorded growth for entry S=C1NC2(c3ccccc3)CCC(=S)N2c2ccccc21 (configuration not stated) equals 92% (inactive)

The recorded growth for entry `COc1cccc(-c2nn(C)c3sc(C(=O)NCCN4CCN(c5ccccc5F)CC4)cc23)c1` equals -72.1% (active)

The recorded growth for entry `O=c1oc2ccc(Cl)cc2c(=O)n1-c1cc(C(F)(F)F)cc(C(F)(F)F)c1` equals -34.7% (active)

The recorded growth for entry `COc1cc(/C=C/C(=O)c2ccc(Nc3nc(NCCO)nc(N4CCOCC4)n3)cc2)cc(OC)c1OC` equals -31.7% (active)

The recorded growth for entry O=S(=O)(Nc1ncccn1)c1ccc(NC2Nc3nc4ccccc4nc3S2)cc1 (configuration not stated) equals 93.7% (inactive)

The recorded growth for entry `N#C/C(=C\c1c(-c2ccccc2)[nH]c2ccccc12)C(=O)c1ccccc1` equals 36.3% (inactive)

The recorded growth for entry `O=C(CN1C(=O)/C(=C\c2ccc(Cl)cc2)SC1=S)Nc1ncc(Cc2ccc(Cl)cc2)s1` equals 99.9% (inactive)

The recorded growth for entry CC1=NCC2NC(=O)NC(C)=C12 (configuration not stated) equals 95.2% (inactive)

The recorded growth for entry `O=c1c(-c2nc3ccccc3[nH]2)cc2ccccc2n1Cc1cn(Cc2ccc(F)cc2)nn1` equals 17.2% (inactive)

The recorded growth for entry `CCOC(=O)c1sc(-c2ccc(OS(=O)(=O)c3ccc(Br)s3)c(C=O)c2)nc1C` equals 12.3% (inactive)

The recorded growth for entry CCC1=C[C@]2(C3CC(=O)N(c4ccccc4)C3=O)CC(C(C)(C)C)C[C@@H]2[C@@H]2C(=O)N(c3ccccc3)C(=O)[C@H]12 (some centres not stated) equals 71.9% (inactive)

The recorded growth for entry CCN1C(=O)N(CC)C2C1NC(=S)N2/N=C/C=C/c1ccccc1OC (configuration not stated) equals 25.8% (inactive)

The recorded growth for entry CC(C)CCNCC(O)Cn1c2ccccc2c2ccccc21 (configuration not stated) equals 14.1% (inactive)

The recorded growth for entry `O=C(/C=C/c1ccc(Cl)cc1)c1ccc(Nc2nc(NCCO)nc(N3CCOCC3)n2)cc1` equals 69% (inactive)

The recorded growth for entry `CCOC(=O)c1cnc2ccc(Cl)cc2c1NCCCN(C)C` equals -15.6% (active)

The recorded growth for entry `Fc1ccc(Oc2ccc(Nc3ncnc4onc(-c5ccccc5)c34)cc2)cc1` equals 92.1% (inactive)

The recorded growth for entry `CC/C(=C(\CC)c1ccc(OCC[N+](C)(C)C)cc1)c1ccc(OC)cc1` equals 42.2% (inactive)

The recorded growth for entry COc1cccc(C(=O)NC(c2ccc(C)cc2)c2cc(Cl)c3cccnc3c2O)c1 (configuration not stated) equals -20% (active)

The recorded growth for entry `CCN(CCO)CCNc1ccc(C)c2sc3cc(Cl)ccc3c(=O)c12` equals -53.1% (active)

The recorded growth for entry `NS(=O)(=O)c1ccc(CCN=C=S)cc1` equals 68.5% (inactive)

The recorded growth for entry `Nc1ccccc1-c1ccc(-c2ccc(Cl)cc2)c2c1[nH]c1ccccc12` equals 60.3% (inactive)

The recorded growth for entry COc1cc(C(C)n2cc(-c3ccccc3)nn2)ccc1OC1CCCCC1 (configuration not stated) equals 55.7% (inactive)

The recorded growth for entry `O=C(Nc1ccc(Br)cc1F)c1cc(F)ccc1O` equals -16.4% (active)

The recorded growth for entry `COC(=O)[C@H]1CCCN1C(=O)[C@H]1CCCN1C(=O)[C@H](Cc1c[nH]c2ccccc12)NC(=S)Nc1cc(C(F)(F)F)cc(C(F)(F)F)c1` equals 57% (inactive)

The recorded growth for entry CCN1C(=O)N(CC)C2Nn3c(s/c(=C4\C(=O)N(C(C)C)c5ccccc54)c3=O)=NC21 (configuration not stated) equals 36.4% (inactive)

The recorded growth for entry CCN1C(=O)N(CC)C2C1NN=c1s/c(=C3\C(=O)N(CC(C)(C)C)c4ccccc43)c(=O)n12 (configuration not stated) equals 36.1% (inactive)

The recorded growth for entry CC1(O)COCCCCOc2c(CN)cccc2NC(=O)c2nc(cnc2N)-c2ccc(cc2)S(=O)(=O)C(C)(C)C1 (configuration not stated) equals -90.8% (active)

The recorded growth for entry `Nc1nc(Nc2cccc(F)c2)nc2ccccc12` equals 41.3% (inactive)

The recorded growth for entry `c1ccc2cc3c(Nc4ccc(N5CCOCC5)cc4)ccnc3cc2c1` equals 95.6% (inactive)

The recorded growth for entry `CCOc1ccccc1CN1CCc2nc3cc(C(C)(C)C)[nH]n3c(=O)c2C1` equals 102% (inactive)

The recorded growth for entry CCCCC1COc2cccc3c2N1C=C/C3=C\C(=O)N(C)c1ccccc1 (configuration not stated) equals 36% (inactive)

The recorded growth for entry `CCOC(=O)c1sc(-c2ccc(OS(=O)(=O)c3ccccc3[N+](=O)[O-])c(C=O)c2)nc1C` equals 64% (inactive)

The recorded growth for entry `C1CCN(c2nc(N3CCCCC3)nc(N3CCOCC3)n2)CC1` equals 93% (inactive)

The recorded growth for entry COc1ccc(C(=O)C2CC2c2ccc(Cl)cc2)cc1 (configuration not stated) equals 84.9% (inactive)

====

system: SK-MEL-2 melanoma; assay: NCI-60 one-dose screen, 48 h (100 = growth as untreated, 0 = no growth, -100 = all killed); details: 10 µM unless noted
This is part of a sample that, as a whole, favours compounds with a hit. Of some 83,000 tested, about 20% had one in any assay.
For each record, write down the corresponding growth.
Value expressed in %; do not type the unit.

The recorded growth for entry `O=S(=O)(c1ccccc1)n1cc2c(c1-c1ccccc1)CCc1sc(Nc3ccccc3)nc1-2` equals 93.4

The recorded growth for entry `CN1CCN(Cc2ccc(NC(=O)c3cncc(C#Cc4nc(N)nc5[nH]ncc45)c3)cc2C(F)(F)F)CC1` equals 92.4

The recorded growth for entry `COC(=O)/C(CCC=C(C)C)=C1\[C@@H](OC(C)=O)C[C@@]2(C)[C@H]1CC(=O)[C@H]1[C@@]3(C)CC[C@H](NCc4ccccc4)[C@@H](C)[C@@H]3CC[C@@]12C` equals 106

The recorded growth for entry `O=C(Nc1ccc(N2CCNCC2)cn1)c1[nH]ncc1Nc1ncnc2sc3c(c12)CCC3` equals 89.7
